Values from patent US8187508B2

Form field: Flash point (one value per entry).
# protocol notes: Flash point (Cleaveland open-cup method, JIS K2265)
# Type: physicochemical
Record the value in °C, omitting the unit from your answer.

Example cases with answers are listed next.
1) CCCCCCCC(=O)OCC(COC(=O)CCCCCCC)OC(=O)CCCCCCC [base agent B, caprylic acid triglyceride] : 235
2) CCCCC(CC)C(=O)OCC(COC(=O)C(CC)CCCC)OC(=O)C(CC)CCCC (stereo not shown) [base agent E, 2-ethylhexanoic acid triglyceride] : 220

Data request: Please list Flash point recorded for the compound CCCCCCCCCCCC(=O)OCC(CC)CCCC (stereo not shown) [2-ethyl hexyl laurate, 2-ethylhexyl laurate, reference compound]
Data returned: 175

----------
# protocol notes: Kinetic viscosity (Canon Fenske viscometer, JIS K2283)
# Type: physicochemical
endpoint label: Kinetic viscosity (40° C.) (mm^2/s)
Record the value in mm^2/s, omitting the unit from your answer.

Example cases with answers are listed next.
1) CCCCC(CC)C(=O)OCC(COC(=O)C(CC)CCCC)OC(=O)C(CC)CCCC (stereo not shown) [base agent E, 2-ethylhexanoic acid triglyceride] : 16
2) CC(CC(=O)OCC(COC(=O)CC(C)CC(C)(C)C)(COC(=O)CC(C)CC(C)(C)C)COC(=O)CC(C)CC(C)(C)C)CC(C)(C)C (stereo not shown) [reference compound] : 110
3) CCCCCCCCCCCC(=O)OCC(CC)CCCC (stereo not shown) [2-ethyl hexyl laurate, 2-ethylhexyl laurate, reference compound] : 5

Would you kindly look at the next entry?
Data request: Please list Kinetic viscosity (40° C.) recorded for the compound CCCCCCCC(=O)OCC(COC(=O)CCCCCCC)OC(=O)CCCCCCC [base agent B, caprylic acid triglyceride]
Data returned: 12.5

----------
# protocol notes: Oxidation stability test (JIS C2101)
# Format: physicochemical
# settings: acid value before the test
# Protocol: In order to ensure good stability to oxygen and heat, the base agent for electrical insulating oils of the invention should preferably have a total acid value of not higher than 0.5 mg of KOH/g, more preferably not higher than 0.3 mg of KOH/g, after deterioration in an oxidation stability test (120° C., 75 hours) described in JIS C2101. […]
Form field: Oxidation stability test, Initial value (one value per entry).
Record the value in mgKOH/g, omitting the unit from your answer.

Example cases with answers are listed next.
1) CCCCCCCC(=O)OCC(COC(=O)CCCCCCC)OC(=O)CCCCCCC [base agent B, caprylic acid triglyceride] : 0.002
2) CCCCCCCCCCCC(=O)OCC(CC)CCCC (stereo not shown) [2-ethyl hexyl laurate, 2-ethylhexyl laurate, reference compound] : 0.002

Data request: Please list Oxidation stability test, Initial value recorded for the compound CC(CC(=O)OCC(COC(=O)CC(C)CC(C)(C)C)(COC(=O)CC(C)CC(C)(C)C)COC(=O)CC(C)CC(C)(C)C)CC(C)(C)C (stereo not shown) [reference compound]
Data returned: 0.02

Data request: Please list Oxidation stability test, Initial value recorded for the compound CCCCC(CC)C(=O)OCC(COC(=O)C(CC)CCCC)OC(=O)C(CC)CCCC (stereo not shown) [base agent E, 2-ethylhexanoic acid triglyceride]
Data returned: 0.008

----------
Form field: Di-electric breakdown voltage (one value per entry).
# protocol notes: Dielectric breakdown voltage (JIS C2101)
# Format: physicochemical

Example cases with answers are listed next.
1) CC(CC(=O)OCC(COC(=O)CC(C)CC(C)(C)C)(COC(=O)CC(C)CC(C)(C)C)COC(=O)CC(C)CC(C)(C)C)CC(C)(C)C (stereo not shown) [reference compound] : 55 KV/2.5 mm
2) CCCCCCCCCCCC(=O)OCC(CC)CCCC (stereo not shown) [2-ethyl hexyl laurate, 2-ethylhexyl laurate, reference compound] : 78 KV/2.5 mm
3) CCCCC(CC)C(=O)OCC(COC(=O)C(CC)CCCC)OC(=O)C(CC)CCCC (stereo not shown) [base agent E, 2-ethylhexanoic acid triglyceride] : 73 KV/2.5 mm

Would you kindly look at the next entry?
Data request: Please list Di-electric breakdown voltage recorded for the molecule CCCCCCCC(=O)OCC(COC(=O)CCCCCCC)OC(=O)CCCCCCC [base agent B, caprylic acid triglyceride]
Data returned: 71 KV/2.5 mm

----------
Form field: Oxidation stability test, 120° C. after 75 hours (one value per entry).
# protocol notes: Oxidation stability test (JIS C2101)
# Assay type: physicochemical
# settings: acid value after 120° C., 75 hours
Record the value in mgKOH/g, omitting the unit from your answer.

1. CCCCC(CC)C(=O)OCC(COC(=O)C(CC)CCCC)OC(=O)C(CC)CCCC (stereo not shown) [base agent E, 2-ethylhexanoic acid triglyceride] : 0.2
2. CCCCCCCCCCCC(=O)OCC(CC)CCCC (stereo not shown) [2-ethyl hexyl laurate, 2-ethylhexyl laurate, reference compound] : 0.3
3. CCCCCCCC(=O)OCC(COC(=O)CCCCCCC)OC(=O)CCCCCCC [base agent B, caprylic acid triglyceride] : 0.4

Data request: Please list Oxidation stability test, 120° C. after 75 hours recorded for the compound CC(CC(=O)OCC(COC(=O)CC(C)CC(C)(C)C)(COC(=O)CC(C)CC(C)(C)C)COC(=O)CC(C)CC(C)(C)C)CC(C)(C)C (stereo not shown) [reference compound]
Data returned: 0.8

----------
# protocol notes: Specific permittivity (JIS C2101)
# Format: physicochemical
Form field: Specific permittivity (80° C.) (one value per entry).
I only need the number, thanks.

Example cases with answers are listed next.
1. CCCCCCCC(=O)OCC(COC(=O)CCCCCCC)OC(=O)CCCCCCC [base agent B, caprylic acid triglyceride] : 3.8
2. CCCCCCCCCCCC(=O)OCC(CC)CCCC (stereo not shown) [2-ethyl hexyl laurate, 2-ethylhexyl laurate, reference compound] : 2.7

Would you kindly look at the next entry?
Data request: Please list Specific permittivity (80° C.) recorded for the compound CCCCC(CC)C(=O)OCC(COC(=O)C(CC)CCCC)OC(=O)C(CC)CCCC (stereo not shown) [base agent E, 2-ethylhexanoic acid triglyceride]
Data returned: 3.5
